Origin of the recorded values: patent US3941842A

In this section we review reported LC50 Anopheles albimanus larvae values for a set of compounds.
# Test system: Anopheles albimanus larvae
# Test Summary: LC50 to Anopheles albimanus larvae
# Type: in vivo, Anopheles albimanus Weid
Quick reminder: number only, in ppm, skip the unit.

Asked: Could you please provide reported LC50 Anopheles albimanus larvae for Cc1ccc(NC(c2ccc(Cl)cc2)C(Cl)(Cl)Cl)cc1 (centres unmarked) [Compound XVI] ? Thanks!
Given back: 0.14

Asked: Could you please provide reported LC50 Anopheles albimanus larvae for COc1ccc(C(Nc2ccc(Cl)cc2)C(Cl)(Cl)Cl)cc1 (centres unmarked) [V] ? Thanks!
Given back: 0.12

Asked: Could you please provide reported LC50 Anopheles albimanus larvae for COc1ccc(C(Nc2ccc(C)c(C)c2)C(Cl)(Cl)Cl)cc1 (centres unmarked) [XXIII] ? Thanks!
Given back: 0.18

Asked: Could you please provide reported LC50 Anopheles albimanus larvae for Cc1ccc(C(Nc2ccc(Cl)cc2)C(Cl)(Cl)Cl)cc1 (centres unmarked) [Compound XV] ? Thanks!
Given back: 0.13

---

# Tested on: Phormia regina
# Test Summary: whole plant or invertebrate
# Condition: synergized with piperonyl butoxide; topical
In this section we review reported Topical LD50, Phormia regina, with pb values for a set of compounds.
Quick reminder: number only, in μg per g, skip the unit.

Sample answers from the record:
- CCOc1ccc(NC(c2ccc(Cl)cc2)C(Cl)(Cl)Cl)cc1 (stereo not shown): 13.2
- Clc1ccc(NC(c2ccc(Cl)cc2)C(Cl)(Cl)Cl)cc1 (stereo not shown): 42.5
- CCCCOc1ccc(C(Nc2ccc(OC)cc2)C(Cl)(Cl)Cl)cc1 (stereo not shown): 67.5
- CCOc1ccc(C(Nc2ccc(C)cc2)C(Cl)(Cl)Cl)cc1 (stereo not shown): 4.2
- CCOc1ccc(NC(c2ccc(C)cc2)C(Cl)(Cl)Cl)cc1 (stereo not shown): 42.5

Asked: Could you please provide reported Topical LD50, Phormia regina, with pb for COc1ccc(NC(c2ccc(C)cc2)C(Cl)(Cl)Cl)cc1 (stereo not shown) ? Thanks!
Given back: 14.0

Asked: Could you please provide reported Topical LD50, Phormia regina, with pb for COc1ccc(NC(c2ccc(N(C)C)cc2)C(Cl)(Cl)Cl)cc1 (stereo not shown) ? Thanks!
Given back: 85.0

Asked: Could you please provide reported Topical LD50, Phormia regina, with pb for COc1ccc(C(Nc2ccc(C)cc2)C(Cl)(Cl)Cl)cc1 (stereo not shown) ? Thanks!
Given back: 11.50

---

# Test Summary: Model ecosystem: distribution, ecological magnification and Biodegradability Index
# Condition: H2O; 33 days; 5.0 mg 3H-ethoxyaniline to Sorghum
In this section we review reported Concentration of ethoxyaniline equivalents in H2O values for a set of compounds.
Quick reminder: number only, in ppm, skip the unit.

Sample answers from the record:
• CCOc1ccc(NC(c2ccc(O)cc2)C(Cl)(Cl)Cl)cc1 (stereo not shown) = 0.031
• CCOc1ccc(N)cc1 = 0.053
• CCOc1ccc(NC(c2ccc(OCC)cc2)C(Cl)(Cl)Cl)cc1 (stereo not shown) = 0.055

Shifting focus to the compound that follows.
Asked: Could you please provide reported Concentration of ethoxyaniline equivalents in H2O for `CCOc1ccc(C(=O)O)cc1` ? Thanks!
Given back: 0.123

---

In this section we review reported Topical LD50, Musca domestica Rsp, with pb values for a set of molecules.
# System: Musca domestica Rsp
# Test Summary: Topical LD50 to adult female RSP houseflies
# Condition: RSP strain; synergized with piperonyl butoxide; topical
Please report the result as a number followed by the unit.

- CCOc1ccc(NC(c2ccccc2)C(Cl)(Cl)Cl)cc1 (stereo not shown): 120 μg per g
- CN(C)c1ccc(C(Nc2ccc([N+](=O)[O-])cc2)C(Cl)(Cl)Cl)cc1 (stereo not shown): 500 μg per g
- CCOc1ccc(NC(c2ccc(Cl)cc2)C(Cl)(Cl)Cl)cc1 (stereo not shown): 13.0 μg per g

Asked: Could you please provide reported Topical LD50, Musca domestica Rsp, with pb for CCOc1ccc(NC(c2ccc3c(c2)OCO3)C(Cl)(Cl)Cl)cc1 (stereo not shown) ? Thanks!
Given back: 11.0 μg per g

Asked: Could you please provide reported Topical LD50, Musca domestica Rsp, with pb for COc1ccc(NC(c2ccc(N(C)C)cc2)C(Cl)(Cl)Cl)cc1 (stereo not shown) ? Thanks!
Given back: 13.5 μg per g

Asked: Could you please provide reported Topical LD50, Musca domestica Rsp, with pb for CCOc1ccc(C(Nc2ccc(C)cc2)C(Cl)(Cl)Cl)cc1 (stereo not shown) ? Thanks!
Given back: 4.4 μg per g

Asked: Could you please provide reported Topical LD50, Musca domestica Rsp, with pb for CCOc1ccc(C(Nc2ccccc2OCC)C(Cl)(Cl)Cl)cc1 (stereo not shown) ? Thanks!
Given back: 140 μg per g
